# System: human hepatoma cell line (HepG2)
# Format: cell-based
# test_context: MTT, 24 h incubation
Exercise: state measured MDL50 HepG2 for each of the molecules provided.

Field: example entries. Status: answers known.
Cc1cc(Nc2ccc3ccccc3c2)n2nc(C(F)(F)F)nc2n1 : 425 µM
Cc1cc(-n2cccn2)n2nc(C(F)(F)F)nc2n1 : >746 µM
Cc1cc(Nc2cccc(Cl)c2)n2nc(C(F)(F)F)nc2n1 : 373 µM

# context switch: different molecule, same MDL50 HepG2
The recorded MDL50 HepG2 for Cc1cc(N2CCN(C)CC2)n2nc(C(F)(F)F)nc2n1 is >666 µM
